Tested on: SNB-19
Experiment: NCI tumour cell line growth inhibition, 48 h
Active and inactive are the calls of the source. Cut-off read from the data, not from the text of the source: active = GI50 up to about 1.1 µM and inactive = higher.
measuredProperty: GI50

# annotated cases, reported GI50 shown
compound	targetEntity	GI50
O=C(O)c1c2c(cc3c1CC(Cc1ccccc1)C3=O)CCC2 (centres undefined)	SNB-19	> 100 µM (inactive)
Cc1cc(S(=O)(=O)Nc2nc(N)nc(N(C)C)n2)c(SCC(=O)O)cc1Cl	SNB-19	> 10 µM (inactive)
O=C1[C@@H]2C(c3ccccc3[N+](=O)[O-])=[N+](c3ccccc3)O[C@@H]2C(=O)N1c1ccc(Cc2ccc(N3C(=O)[C@H]4C(c5ccccc5[N+](=O)[O-])=[N+](c5ccccc5)O[C@H]4C3=O)cc2)cc1	SNB-19	> 100 µM (inactive)

// switching to the query compound
Query: So what GI50 did "CCOc1ccc2c(c1)/C(=C(\C(Cl)=C(Cl)Cl)[N+](=O)[O-])N2" get with SNB-19?
Response: > 100 µM (inactive)

====

Test system: CAKI-1
Test: NCI tumour cell line growth inhibition, 48 h
Activity calls are given as the source filed them. No stated cut-off is given here; in the data, active = GI50 up to about 1.1 µM and inactive = higher.
Classes to choose from: 1 for active, -1 for inactive

Here's what some known entries look like.
compound	targetEntity	categoryLabel
CC(=O)OC(Cc1c(O)c2c(C)cccc2oc1=O)C(C)(C)O (centres undefined)	CAKI-1	-1
O=C(Nc1ccc(Cl)c(C(F)(F)F)c1)C(=O)C(C(=O)/C=C/c1ccccc1)C1OC(=O)c2ccccc21 (centres undefined)	CAKI-1	-1
O=C1C2Nc3ccccc3SC2C(=O)N1c1ccccc1C(F)(F)F (centres undefined)	CAKI-1	-1
Nc1nc(O)c2ncn([C@H]3CC[C@@H](CO)O3)c2n1	CAKI-1	-1
COc1ccccc1Nc1nc(NNC(=O)Cc2ccccc2)nc(NNC(=O)c2ccncc2)n1	CAKI-1	-1
N#Cc1c(Nc2nc3ccccc3s2)c2ccccc2n2c1nc1ccccc12	CAKI-1	-1

Query: Kindly provide the recorded test outcome for the following compound: Cc1ccc(/C=C2\N=C(N3CCCC(CO)C3)NC2=O)cc1 (centres undefined)
Response: -1

Query: Kindly provide the recorded test outcome for the following compound: CC1(C)OC(=O)C2(O1)C(=O)C1CCCCC12 (centres undefined)
Response: -1

Query: Kindly provide the recorded test outcome for the following compound: CCC1=NC(C(F)(F)F)(C(F)(F)F)N=C(/N=C(/N)N(C)C(C(C)C)P(=O)(OC(C)C)OC(C)C)O1 (centres undefined)
Response: -1

====

Tested on: UO-31
Experiment: NCI tumour cell line growth inhibition, 48 h
The source made the active and inactive calls. No stated cut-off is given here; in the data, active = GI50 up to about 1.1 µM and inactive = higher.
measuredProperty: GI50

compound	reading
O=C(CNC(=O)c1ccccc1)Oc1c(Cl)c(Cl)c(Cl)c(Cl)c1Cl	22 µM (inactive)
CCOC(=O)C1(C(=O)OCC)[C@@H](c2ccccc2)C2=NO[C@@H]3CCC[C@H]1[C@H]23	53.3 µM (inactive)
NC(=O)NCCCC(NC(=O)OCCCCCCn1ccc(=O)[nH]c1=O)C(=O)O (configuration not stated)	> 100 µM (inactive)
CCOP(=O)(OCC)/C(C#N)=C/c1ccco1	> 100 µM (inactive)
CCOC(=O)/C=C/n1c2ccccc2c(=O)c2cc(OC)ccc21	> 100 µM (inactive)

// each compound listed below needs its GI50
1. Cc1c(-c2ccccc2)n[nH]c1NC1(C)C(=O)N(/N=C/c2ccccc2)N=C1c1ccccc1 (configuration not stated)
2. N#Cc1c(Nc2nc3ccccc3s2)c2ccccc2n2c1nc1ccccc12

Response:
["> 100 µM (inactive)", "> 100 µM (inactive)"]

====

Please respond with reported GI50 for every item in the list.
Test system: U-251
Assay: NCI tumour cell line growth inhibition, 48 h
The source made the active and inactive calls. Rule as the data show it: active = GI50 up to about 1.1 µM and inactive = higher.

# annotated cases, reported GI50 shown
compound	targetEntity	measuredProperty	reading
COc1ccc2c(c1)[n+]([O-])c(C(=O)CC(=O)C(=O)Nc1cccc(Cl)c1C)c(C)[n+]2[O-]	U-251	GI50	> 100 µM (inactive)
O=C[C@@H](CO)O[C@H](C=O)c1c[nH]c(=O)[nH]c1=O	U-251	GI50	143 µM (inactive)

// switching to the query compound
Query: Look at this compound and give its reported GI50. O=C(O)c1c2c(cc3c1CC(Cc1ccccc1)C3=O)CCC2 (stereo not drawn)
Response: > 100 µM (inactive)

====

System: DU-145
Experiment: NCI tumour cell line growth inhibition, 48 h
Active and inactive are the calls of the source. Rule as the data show it: active = GI50 up to about 1.1 µM and inactive = higher.
Classes to choose from: active, inactive

compound	categoryLabel
C=CCc1cc(C(Cc2ccccc2)NC(C)C)cc(OCc2ccccc2)c1OCc1ccccc1 (stereo not given)	inactive
Cc1ccc2c(c1)C=CC1(O2)N(c2ccccc2)C(=S)OC1(C)C (stereo not given)	inactive
CCc1cccc(C(C)C)c1NC(=O)C(=O)C1C(=O)Nc2ccccc2[S+]1[O-] (stereo not given)	inactive

Query: Kindly provide the recorded test outcome for the following compound: "O=C(O)c1cc(O)nc(S)n1"
Response: inactive

Query: Kindly provide the recorded test outcome for the following compound: Cc1ccc(/C=C2\N=C(N3CCCC(CO)C3)NC2=O)cc1 (stereo not given)
Response: inactive

Query: Kindly provide the recorded test outcome for the following compound: CCc1cccc(CC)c1NC(=O)C(C#N)C1=C(Cl)C(=O)c2ccccc2C1=O (stereo not given)
Response: inactive

Query: Kindly provide the recorded test outcome for the following compound: CC1CN(c2cc3c(cc2F)c(=O)c(C(=O)O)cn3-c2ccc(F)cn2)CC(C)N1 (stereo not given)
Response: inactive

Query: Kindly provide the recorded test outcome for the following compound: CC(=O)OC1=c2ccccc2=C(O)C2C1C=NN2C(C)=O (stereo not given)
Response: inactive

Query: Kindly provide the recorded test outcome for the following compound: "NNC(=O)CC(=O)Nc1ccc(S(=O)(=O)c2ccc(NC(=O)CC(=O)NN)cc2)cc1"
Response: inactive

Query: Kindly provide the recorded test outcome for the following compound: CCN(CC)CCCC(C)Nc1c2ccc(Cl)cc2nc2ccc(OC)cc12 (stereo not given)
Response: inactive

====

System: U-251
Experiment: NCI tumour cell line growth inhibition, 48 h
Calls of active or inactive are those of the source. Cut-off read from the data, not from the text of the source: active = GI50 up to about 1.1 µM and inactive = higher.
Classes to choose from: 1.0 for active, 0.0 for inactive

Here's what some known entries look like.
compound	categoryLabel
CCc1cccc(C(C)C)c1NC(=O)C(=O)C1C(=O)Nc2ccccc2[S+]1[O-] (stereo not given)	0.0
CC[C@@H](C)[C@H](NC(=O)[C@H](Cc1ccccc1)NCC(F)(F)F)C(=O)OC(C)(C)C	0.0
C=C(C)C1CC2=C(C(=O)OC)C=C(O2)C(C(=C)C)[C@@H]2OC(=O)/C(=C\C1O)[C@H]2N(C)C (stereo not given in full)	0.0
CCC(CC)(CO)CNc1cc(Cl)nc(N)n1	0.0
CC(C)(O)/C1=C/C=C/CCCCCCCCCC1	0.0
COc1c(-c2nc3ccc(N4CCN(C)CC4)nc3[nH]2)cc(OC)c2c1nc(CO)n2C	0.0
CC(C)(CNC(=O)/C(Cl)=C(/Cl)C(=O)O)CNC(=O)/C(Cl)=C(/Cl)C(=O)O	0.0
COC(=O)c1ccc(/C=C2\CCc3ccccc3C2=O)cc1	0.0
O=C(/C=C/c1ccc2c(c1)OCO2)c1ccc(O)cc1	0.0
CN(C(=O)C1CCCCCC1=O)c1ccccc1Cl (stereo not given)	0.0

Query: Kindly provide the recorded test outcome for the following compound: "CO/C=C(/C(=O)OC)c1ccccc1Oc1c(F)c(F)c(F)c(F)c1F"
Response: 0.0

Query: Kindly provide the recorded test outcome for the following compound: CC(C)Cc1ccc(C(C)C(=O)N2CCN(/C=C/c3ccccc3)CC2)cc1 (stereo not given)
Response: 0.0

Query: Kindly provide the recorded test outcome for the following compound: "CSc1nc(C)c(CCOC(C)=O)c(Cl)n1"
Response: 0.0

Query: Kindly provide the recorded test outcome for the following compound: "CC(C)NC(=O)CCN(C(=O)O)S(=O)(=O)c1ccc(NC(=O)c2ccccc2)cc1"
Response: 0.0

Query: Kindly provide the recorded test outcome for the following compound: "COC1=CC(=O)c2c(O)ccc(O)c2C1=O"
Response: 0.0

Query: Kindly provide the recorded test outcome for the following compound: CSc1nc(NC(C)C)c2c(n1)Sc1nc3ccccc3n1C2O (stereo not given)
Response: 0.0

Query: Kindly provide the recorded test outcome for the following compound: "C/C(=N\NC(=S)Nc1ccc([N+](=O)[O-])cc1S(=O)(=O)O)c1ccccn1"
Response: 0.0

Query: Kindly provide the recorded test outcome for the following compound: COC(=O)C1=C(OC)c2cc3c(cc2C(c2cc(OC)c(OC)c(OC)c2)C1C(=O)OC)OCO3 (stereo not given)
Response: 0.0

Query: Kindly provide the recorded test outcome for the following compound: "CCOc1ccc2c(c1)/C(=C(\C(Cl)=C(Cl)Cl)[N+](=O)[O-])N2"
Response: 0.0

====

Please respond with reported GI50 for every item in the list.
System: SK-MEL-28
Experiment: NCI tumour cell line growth inhibition, 48 h
Active and inactive are the calls of the source. No stated cut-off is given here; in the data, active = GI50 up to about 1.1 µM and inactive = higher.

# annotated cases, reported GI50 shown
molecule	reading
O=C1[C@@H]2C(c3ccccc3[N+](=O)[O-])=[N+](c3ccccc3)O[C@@H]2C(=O)N1c1ccc(Cc2ccc(N3C(=O)[C@H]4C(c5ccccc5[N+](=O)[O-])=[N+](c5ccccc5)O[C@H]4C3=O)cc2)cc1	> 100 µM (inactive)
CCOc1ccc2c(c1)/C(=C(\C(Cl)=C(Cl)Cl)[N+](=O)[O-])N2	> 100 µM (inactive)
O=C1c2cccnc2C(=O)c2c1nc1ccccc1c2-c1ccc2c3c(nc4ccccc42)C(=O)c2cccnc2-c13	2.55 µM (inactive)
COC(=O)[C@H](Cc1ccccc1)NC(=O)/C(=C/C(C)C)NC(=O)[C@H](CCSC)NC=O	> 100 µM (inactive)
CC(C)(C)OC(=O)CN1CCN(CC(=O)N2CCN(C(=O)OCc3ccccc3)CC2)CCN(CC(=O)OC(C)(C)C)CCN(CC(=O)N2CCN(C(=O)OCc3ccccc3)CC2)CC1	4.93 µM (inactive)
COC(=O)c1ccc(/N=N/N(C)COc2ccc(Br)cc2)cc1	> 100 µM (inactive)

Query: Look at this molecule and give its reported GI50. COC1(Cc2ccccc2)C(=O)c2ccccc2N1C(C)=O (configuration not stated)
Response: > 100 µM (inactive)
